Consider the following compounds; for each one, report its pEC50.
- TARGET: hM5 (human Muscarinic receptor subtype 5) (Homo sapiens, UniProt P08912)
- Sequence (P08912 whole entry): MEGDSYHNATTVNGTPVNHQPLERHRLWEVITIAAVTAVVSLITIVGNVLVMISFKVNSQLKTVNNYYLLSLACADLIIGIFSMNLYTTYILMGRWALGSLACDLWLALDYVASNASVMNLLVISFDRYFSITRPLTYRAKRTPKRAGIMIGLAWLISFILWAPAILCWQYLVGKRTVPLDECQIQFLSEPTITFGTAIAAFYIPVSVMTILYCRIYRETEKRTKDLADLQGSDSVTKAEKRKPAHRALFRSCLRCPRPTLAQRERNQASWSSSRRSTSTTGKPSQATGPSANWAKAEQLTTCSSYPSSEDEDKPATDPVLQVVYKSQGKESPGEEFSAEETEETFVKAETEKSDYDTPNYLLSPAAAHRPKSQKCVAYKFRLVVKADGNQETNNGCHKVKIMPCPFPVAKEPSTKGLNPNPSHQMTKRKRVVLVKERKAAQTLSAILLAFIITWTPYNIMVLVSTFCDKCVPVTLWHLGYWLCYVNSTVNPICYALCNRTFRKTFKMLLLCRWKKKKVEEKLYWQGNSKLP
- TEST_METHOD_NOTES: Human M5 calcium mobilization FLIPR assay
- PARTICULARS: receptor expressed in CHO cells, intracellular Ca2+ release
pEC50: −log10 of the molar value.

Query: Give pEC50 (hM5 (human Muscarinic receptor subtype 5) (Homo sapiens, UniProt P08912)) of the following compound: CCOC(=O)N1CCC(C)(N2CCC(N3C(=O)NC[C@H]4CCCC[C@@H]43)CC2)CC1 [Example 7]
Result: 6.77

Query: Give pEC50 (hM5 (human Muscarinic receptor subtype 5) (Homo sapiens, UniProt P08912)) of the following compound: CC(C)OC(=O)N1CCC(N2CCC(N3C(=O)NC[C@H]4CCCC[C@@H]43)CC2)CC1 [Example 2]
Result: < 4.31

Go through the list and state pEC50 for each entry.
1. Cn1cccc1C(=O)N1CCC(N2CCC(N3C(=O)CO[C@H]4CCCC[C@@H]43)CC2)CC1 [Example 12]
2. CC(C)OC(=O)N1CCC(N2CCC(N3C(=O)CO[C@H]4CCCC[C@@H]43)CC2)CC1 [Example 10]
3. Cc1ccccc1C(=O)N1CCC(N2CCC(N3C(=O)NC[C@H]4CCCC[C@@H]43)CC2)CC1 [Example 4]
4. COc1ccsc1C(=O)N1CCC(N2CCC(N3C(=O)OC[C@H]4CCCC[C@@H]43)CC2)CC1 (racemic) [Example 17]
5. Cc1ccccc1C(=O)N1CCC(N2CCC(N3C(=O)CO[C@H]4CCCC[C@@H]43)CC2)CC1 [Example 11]

Result:
["< 4.40", "< 4.40", "< 4.31", "< 4.40", "< 4.40"]
